- assay: protein stability index of a GFP-peptide fusion (yeast GPS) (PSI 1-4); higher = more stable; sorted into four equal gates, so the index is relative within each strain
- assay setup: pdr5∆
Items are presented alongside their recorded protein stability index.
endpoint name: protein stability index

> print(dat)
                         sequence.text   val
 1            NEVKEWAVTLDTSRPDL [DSN1]  3.15
 2            MTLLTDSLRKLYVDSES [MTW1]  1.79
 3            LTFNSKNIQSKDSYINA [FAS2]  2.72
 4            SLVFNRKLAVERAGHLL [PRE5]   1.5
 5            ISVNSSSFSLTFFPRCI [POP1]  2.66
 6            YENSISKDLRSVWKPIA [IRR1]  2.63
 7           STAIKSLVALGIDPQDL [CDC53]  2.67
 8            YSRITLIIDDPSKGQSL [RPP1]  2.44
 9   TTVYRYSAAKKIPDTYT [YAR002W/NUP60]  2.07
10           EIMQQKFPATNVTTILD [ECM29]  2.47
11            DTTVNDCLDKLLNDECT [SNF2]  3.46
12            QETCDKLRARLVEYGFD [SMC2]  2.52
13            LLKHPFKAIHGSQLRLS [YCS4]  1.62
14            QQQQQQQQGQIPQSQQV [SNF5]  2.63
15   TNGGLFGSGTQNNNTLG [YGR119C/NUP57]  2.91
16            IIFNYVPGPGTKLIQYE [CSL4]  2.99
17           KSLAMEHKSQVVLYNYY [CSN12]  1.34
18    KTEDPKGGIIASVGDIL [YML031W/NDC1]  2.62
19            DEAKDFIVSGTASDQLF [PUP3]  2.83
20           TTAVDALQKGLKDLMDL [RPC19]  2.79
21           DFLGVASTGSGKTLAFV [PRP28]  3.05
22            TDKSNSPIGFTNSPQIS [SMC2]  3.16
23          AKAKRRHTTGTGRMRYL [RPL37A]  3.22
24            QSYFSQLKFEGFALNSD [BRR2]  1.26
25          YLRVSFKNTRETAQAIN [RPL17A]  1.34
26            SNNITSGLNRAISTGNW [RET1]  3.37
27            EWDMLNVEEEQIVPYIE [BRR2]  3.41
28            KMVKAWNLNQFQIEADF [ASC1]  2.67
29  RCIGDSDNVSFEIQGVP [YMR129W/POM152]  3.39
30            EVSQFLIENGASVRIKD [NAS6]  2.39
31            ISKDCSAFACKTDEVII [BRR2]  3.38
32          TAAYARTIGIAVDHRRQ [RPL13A]  1.58
33   QLKTGLAAIVSTVIEEF [YGL172W/NUP49]  2.79
34            LKKLQSDIESANNQEYD [SMC1]   3.2
35            LVDQGFNYSGKDMLYSG [RET1]  3.29
36            QLEGFESRKAFFLGYMI [RPB2]  2.42
37            FETETEVTFKNANIFSS [FAS1]  3.36
38            QLEYKRGEIREIEQVCK [MED7]  1.53
39            DFRTRYIDIRTNNVLRK [MTW1]  2.86
40           LDQVGVPKSIAKTLTYP [RPO21]  2.83
41            KIATRGVMLWKEFDETI [FAS1]  2.94
42            RSTKDMIDAVFEQDSHL [SNF6]  3.34
43            CERRSTLKLQDTRITPS [PRE6]  2.81
44            GDTVQFAEYIQANIQLY [PRE1]  2.31
45           IDREGNARKVVGASVVV [RPS12]  2.75
46            GSKQILKTEAANVLDPS [BRR2]  2.99
47           KVLAAHTKFEVAIGLNG [RRP40]  2.56
48            DIFAVNLEESSKLDIYT [RET1]  2.78
49            QQQQMQQQQQQQQQQQN [SSN2]  2.63
50           TRIKLLLTKNVSCYRPR [RPS6A]  2.64
51            LVQKTVQESGNIDYQKG [GRR1]  3.37

====

- assay: protein stability index of a GFP-peptide fusion (yeast GPS) (PSI 1-4); higher = more stable; sorted into four equal gates, so the index is relative within each strain
- assay setup: pdr5∆
sequences and their reported protein stability index
endpoint name: protein stability index

> print(dat)
                      sequence.text   val
1          IQVAAFIYGMSAKDHPK [PRP8]  2.98
2  NMEKEKDRIIDERTKEF [YIL149C/MLP2]  2.93
3          PAAESKIFTPNLLQISA [SNF5]  2.04
4          PLDTIETELPTLSLPDS [SMC1]  2.92
5         LSERKAEKAEIRKRRAS [RPS6A]  3.06

====

- assay: protein stability index of a GFP-peptide fusion (yeast GPS) (PSI 1-4); higher = more stable; sorted into four equal gates, so the index is relative within each strain
- assay setup: san1∆
endpoint name: protein stability index

> print(dat)
                         sequence.text   val
 1            AKLNHLKKLEKFMELER [SWI3]  3.03
 2            QELLNAETLCFTVNVLY [RPN3]  2.94
 3            KRRIEEEQEKINSAPDF [ISW2]  2.98
 4            SQQNIVPNSSDQAELPN [SNF2]  3.04
 5           PNVCNMKQYRDFLGVAS [PRP28]  2.37
 6            ERAELETDEYISYTSHI [RPN1]  3.01
 7    LMEEIESLKKELQIFKT [YIL149C/MLP2]  2.82
 8            YSRSVDKEWVFAALSDS [SSN2]  1.41
 9           FYKLNMPDEFNTLYTAI [SRP72]  2.66
10  SYRNAFTNVLTKYSDVL [YJL039C/NUP192]  2.36
11  ELNDLKWGRNQPVNINL [YMR129W/POM152]  2.83
12            VKQVLLSVEIGVLTDIS [NUT1]  1.37
13           VKWQYDPNNPVDFDGLD [SNF12]  2.25
14            VILFDSDWNPQADLQAM [ISW2]  2.84
15  ECPAIPIFNYIFTEKIY [YJL039C/NUP192]  1.43
16            ISAFTQFLRLIFVSILS [ARP9]   2.9
17           SISTYKDILNLASEVGD [ECM29]  2.71
18            SKKRKLVADGVFYAELN [RPS3]  1.55
19            TPKGNESEQELSLHTGF [MTR3]  3.18
20           WKEVMFDPSKDVLINEL [CDC53]   1.8
21            IFCVGSGQTFAYGVLDS [PRE2]  2.25
22           FPNGFKNFENGPKKNVF [RPC34]  3.21
23    VLVDEIKSQYYSRISKL [YIL149C/MLP2]   2.3
24           GVITVHNVFSKEQTIQL [RPN14]  2.95
25            AAGNASSLPPGEILLPD [SNF5]   3.1
26           EVLCSRIIEKSVRRSGA [RRP45]  2.41
27          VRSREDRKNRAPPQRPR [RPS26A]  2.76
28          KNQLRDWIRFVSTKTNE [RPL22A]  2.17
29            GSELSSKIRKIHIQETQ [SIR3]  2.58
30            KNDSAEVRQETQPKAEA [NUT1]  3.36
31            SLVKYPELLDSLAILGM [SWI1]  1.99
32            PELFESLGIAQPKGVIL [RPT6]  2.46
33            LSIICVGGHNVTIREQI [SIR3]  1.78
34           SPSYSPTSPSYSPTSPS [RPO21]  2.06
35          VLEQLSGQTPVQSKARY [RPL11A]  2.91
36            AATIGANFIFSPASGIV [RPT4]  1.84
37            VELHGKRKLDIGKDTFV [PRP8]  2.47
38            TEQIKMRILSNDITNLQ [SRB8]  2.15
39            PGVRVSGEDVIIGKTTP [RPB2]  3.61
40           QAQAQAQAQAQAQAQAH [GAL11]  2.84
41  DNIDYAPMRLATAALEI [YJL039C/NUP192]  2.29
42           KLDTEVKNTNANPVVAT [SWP82]  2.54
43            LTSFAEENNYQYGYSGS [SNF6]  2.74
44            VRMLASPMLYKVPDISS [BRR2]  1.96
45          GNSGVVRATFRNNLPAK [RPL33A]  3.19
46           LNELSAKDKEIYNKMIG [RPN13]   2.2
47    VERIQKMIEKIEKMSTI [YIL149C/MLP2]  2.81
48            NKTSNNNNVTAVPAATP [SWI1]  2.81
49            HKQELQDLILDLKKKLN [SMC4]  2.31
50            GQGEQVDDVLETISAIE [RPN1]  2.69
51            HGYFLQDKEKIDNLKDT [ITC1]  3.24
